assay: Quantitative High-Throughput drug screen in 47 multiple myeloma cell lines against the NCATS MIPE library collection: Karpas25_ECACC cell viability assay (AID 1918968; also: nearly all actives have a fitted effect of over 35% in size; also: potency is read from the fitted curve at half-maximal effect); conditions: Karpas25 myeloma viability, CellTiter-Glo ATP, 48 h; series mostly up to 45.8 µM
Results filed as inconclusive are left out. The source made the active and inactive calls. Calls follow the shape of the dose curve; as a rule, active = well fitted cell-killing curve with a large enough effect; inconclusive = small, poorly fitted or top-dose-only effect, or effect the other way; inactive = no such curve, though single readings can be large or run the other way.
EXPERIMENTAL READOUT: Potency

As a guide, the following entries are already answered.
COMPOUND	Potency
Nc1cccc2c1C(=O)N(C1CCC(=O)NC1=O)C2=O (stereo unspecified)	8.33 µM (active)
Cc1cc(Nc2ncc3c(n2)N(C)C(=O)N(c2cc(NC(=O)c4cccc(C(F)(F)F)c4)ccc2C)C3)n(C)n1	0.372 µM (active)
OCCNC1CCCc2c1[nH]c1ccc(-c3ccccc3)cc21 (stereo unspecified)	9.35 µM (active)
NC[C@H]1O[C@H](O[C@H]2[C@@H](O)[C@@H](O[C@H]3O[C@H](CO)[C@@H](O)[C@H](N)[C@@H]3O)[C@H](N)C[C@@H]2N)[C@H](N)C[C@H]1O	inactive
CC(C)(O)CC[C@@H](O)[C@](C)(O)[C@H]1CC[C@@]2(O)C3=CC(=O)[C@@H]4C[C@@H](O)[C@@H](O)C[C@]4(C)[C@@H]3CC[C@]12C	inactive

-- ask For the compound `CS(=O)(=O)N1CCc2c(-c3cnc(N)nc3)nc(N3CCOCC3)nc21` , what Potency is on record?
-- reply 0.105 µM (active)

-- ask Now this one: `CCN(CC)CCCCNc1ncc2c(n1)N(C)C(=O)N(c1c(Cl)c(OC)cc(OC)c1Cl)C2`
-- reply 16.6 µM (active)

-- ask Can you handle `Nc1nc(=O)n([C@H]2C[C@H](O)[C@@H](CO)O2)cc1F` next?
-- reply inactive

-- ask Another compound: `CNC(=O)c1cccc(-c2ccc3c(N4CCOC[C@H]4C)nc(N4CCOC[C@H]4C)nc3n2)c1`
-- reply 0.0743 µM (active)

-- ask Let us now turn to `C=CC1=C(C(=O)O)N2C(=O)[C@@H](NC(=O)C(=NO)c3csc(N)n3)[C@H]2SC1`
-- reply inactive

Where do these numbers come from? They come from PubChem BioAssay (NCATS).
